# Test system: HLA-A*24
# test description: MHC binding assay: UV-ligand exchange with beta2m ELISA (peptide exchange yield)
# Design: species or system human
# applied conditions: Table 11, binding to HLA-A*24, UV-ligand exchange
measured quantity: Peptide exchange (MHC class I binding score, peptide exchange yield)

Here's what some known entries look like.
Output Peptide exchange (MHC class I binding score, peptide exchange yield) of 345 (RYLEEHTEF; listed as Homo sapiens) [compound 345]
++++ (>75% = ++++)

Output Peptide exchange (MHC class I binding score, peptide exchange yield) of 322 (SFISPRYSWLF; listed as Homo sapiens) [compound 322]
++++ (>75% = ++++)

Output Peptide exchange (MHC class I binding score, peptide exchange yield) of 208 (QYLQQQAKL; listed as Homo sapiens) [compound 208]
++++ (>75% = ++++)

Output Peptide exchange (MHC class I binding score, peptide exchange yield) of 196 (VGRSPVFLF; listed as Homo sapiens) [compound 196]
++ (>20% = ++)

Output Peptide exchange (MHC class I binding score, peptide exchange yield) of 136 (YLKSVQLF; listed as Homo sapiens) [compound 136]
++ (>20% = ++)

Others:
Output Peptide exchange (MHC class I binding score, peptide exchange yield) of 227 (YLPNPSLNAF; listed as Homo sapiens) [compound 227]
++ (>20% = ++)

Output Peptide exchange (MHC class I binding score, peptide exchange yield) of 149 (TQFFIPYTI; listed as Homo sapiens) [compound 149]
++ (>20% = ++)

Output Peptide exchange (MHC class I binding score, peptide exchange yield) of 315 (VYDYIPLLL; listed as Homo sapiens) [compound 315]
++++ (>75% = ++++)

Output Peptide exchange (MHC class I binding score, peptide exchange yield) of 24 (KMLPEASLLI; listed as Homo sapiens) [compound 24]
++ (>20% = ++)

---

# System: HLA-A*24
# test description: MHC binding assay: UV-ligand exchange with beta2m ELISA (peptide exchange yield)
# Design: species or system human
# applied conditions: Table 11, binding to HLA-A*24, UV-ligand exchange
measured quantity: Peptide exchange (MHC class I binding score, peptide exchange yield)

Here's what some known entries look like.
Output Peptide exchange (MHC class I binding score, peptide exchange yield) of 72 (RWLDGSPVTL; listed as Homo sapiens) [compound 72]
++++ (>75% = ++++)

Output Peptide exchange (MHC class I binding score, peptide exchange yield) of 217 (QRYGFSSVGF; listed as Homo sapiens) [compound 217]
++++ (>75% = ++++)

Output Peptide exchange (MHC class I binding score, peptide exchange yield) of 365 (KDLMKAYLF; listed as Homo sapiens) [compound 365]
+++ (>50 = +++)

Output Peptide exchange (MHC class I binding score, peptide exchange yield) of 371 (FRSWAVQTF; listed as Homo sapiens) [compound 371]
++ (>20% = ++)

Output Peptide exchange (MHC class I binding score, peptide exchange yield) of 327 (KWKPSPLLF; listed as Homo sapiens) [compound 327]
++++ (>75% = ++++)

Output Peptide exchange (MHC class I binding score, peptide exchange yield) of 13 (KYYIATMAL; listed as Homo sapiens) [compound 13]
+++ (>50 = +++)

Others:
Output Peptide exchange (MHC class I binding score, peptide exchange yield) of 249 (HQYGGAYNRV; listed as Homo sapiens) [compound 249]
++ (>20% = ++)

Output Peptide exchange (MHC class I binding score, peptide exchange yield) of 129 (IYVSLAHVL; listed as Homo sapiens) [compound 129]
++++ (>75% = ++++)

Output Peptide exchange (MHC class I binding score, peptide exchange yield) of 363 (QYGFNYNKF; listed as Homo sapiens) [compound 363]
++++ (>75% = ++++)

Output Peptide exchange (MHC class I binding score, peptide exchange yield) of 182 (AQGSGTVTF; listed as Homo sapiens) [compound 182]
++ (>20% = ++)
